Test system: BDF1 mice, P388 leukemia ip, median survival T/C
TEST_DESCRIPTION: NCI In Vivo Anticancer Drug Screen. Data for tumor model P388 Leukemia (intraperitoneal) in B6D2F1 (BDF1) mice
CONDITION: endpoint: median survival time; dose: 200.0 mg/kg/injection; schedule: Q01DX009 (ip); vehicle: saline with Tween-80; higher = longer survival
Toxic doses and inconclusive results are not listed.
Record form. Attribute: T/C. Fill in for each entry.

Report T/C for O=C(O)c1cc(C(=O)O)cc(S(=O)(=O)F)c1 please.
95 % of control

Name the reported T/C value associated with the compound O=c1[nH]c(Cl)nc2c(Cl)c(C(Cl)(Cl)Cl)nn12
109 % of control

Which T/C is reported for this compound? Cc1ccc(S(=O)(=O)OCC2C3CCCC2C3)cc1 (stereo not drawn)
96 % of control

Param item = NC(=S)S/C=C/C(=O)O ; retrieve measured T/C.
100 % of control

What measured T/C goes with O=C(/C=N/O)Nc1cc(Cl)ccc1Cl ?
90 % of control

State the recorded T/C for this entry: O=c1nc(-c2ccccc2)nc2ccccn12
111 % of control

Bench note: what T/C did O=C(/C=C/c1ccc(OCc2ccccc2)cc1)c1ccc(Cl)cc1Cl show?
89 % of control

I'd like to know its T/C. The compound in question is O=[N+]([O-])c1ccccc1CSc1ncnc2nc[nH]c12
100 % of control

For N/N=C(/c1ccccc1)c1nc(-c2ccccc2)n[nH]c1=O , what is its reported T/C?
112 % of control

What does the record list as T/C for OC(Cc1cc(CC(O)(C(F)(F)F)C(F)(F)F)ncn1)(C(F)(F)F)C(F)(F)F ?
90 % of control

Record request: T/C value, item O[C@@H]1CCCC[C@@H]1n1cnc2c(=S)nc[nH]c21
96 % of control

Can you look up the measured T/C of C=CCOC(=O)C1c2ccccc2Cc2ccccc21 for me?
115 % of control

What value of T/C has been reported for the following compound? CCOC(=O)C1=C(C)NC(C)=C(C(=O)OCC)C1c1ccccc1
95 % of control

Quick one: T/C of O=C1CC(c2ccc(Cl)cc2)NC(c2ccc(Cl)cc2)C1 (stereo not drawn) ?
116 % of control

Entry OC1(C2(O)CCCC2)CCCC1 : reported T/C = ?
95 % of control

What value of T/C has been recorded for this entry: CCOC(=O)C(Cc1ccc(OC)c(OC)c1)C(Cc1ccc(OC)c(OC)c1)C(=O)OCC (stereo not drawn)
104 % of control

Bench note: what T/C did Nc1nc(=S)c2ncn(C3OC(COC(=O)c4ccc(Cl)cc4)C(OC(=O)c4ccc(Cl)cc4)C3OC(=O)c3ccc(Cl)cc3)c2[nH]1 (stereo not drawn) show?
100 % of control

What T/C value was documented for this compound, [O-][N+](=Nc1cccc(Cl)c1)c1cccc(Cl)c1 ?
94 % of control

Entry under review: O=C1C=C(c2ccccc2)C(O)(c2ccccc2)C1 (stereo not drawn) . Reported T/C?
88 % of control

What does the data say about its T/C? Entry: CCCOC(=O)c1ccc(OP(=O)(N(C)C)N(C)C)cc1
100 % of control

Please look up its T/C: COc1ccc2c(c1)CCC1C2CCC2(C)/C(=N/O)C3OC3C12 (stereo not drawn)
111 % of control

Would you kindly share the measured T/C for O=C1C2ON=C(c3ccccc3)C2C(=O)N1OS(=O)(=O)c1ccccc1 (stereo not drawn) ?
109 % of control

What value of measured T/C is listed for C#CC(c1ccccc1)(c1ccccc1)n1ccnc1 ?
98 % of control
